# tgt: Histone deacetylase 1 (Homo sapiens)
# Sequence (Q13547 whole entry): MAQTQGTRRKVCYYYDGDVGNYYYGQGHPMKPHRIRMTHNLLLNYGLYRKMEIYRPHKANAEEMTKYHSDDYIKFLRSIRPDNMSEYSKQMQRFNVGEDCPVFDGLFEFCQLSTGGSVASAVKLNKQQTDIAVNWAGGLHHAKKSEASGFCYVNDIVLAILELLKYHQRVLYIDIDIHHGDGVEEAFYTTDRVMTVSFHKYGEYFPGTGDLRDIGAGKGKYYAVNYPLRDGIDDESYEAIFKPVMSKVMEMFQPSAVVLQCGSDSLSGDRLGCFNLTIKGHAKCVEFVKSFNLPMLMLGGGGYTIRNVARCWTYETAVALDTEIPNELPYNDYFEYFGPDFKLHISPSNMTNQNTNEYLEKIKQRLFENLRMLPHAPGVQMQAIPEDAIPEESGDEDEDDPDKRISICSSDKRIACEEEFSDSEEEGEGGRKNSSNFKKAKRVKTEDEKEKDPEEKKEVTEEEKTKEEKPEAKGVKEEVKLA
measurement.name: pIC50
Answer as the number alone; pIC50 is minus log10 of concentration in mol/L.

Enter pIC50 (test system Histone deacetylase 1 (Homo sapiens)) for `COc1cc2c(Oc3ccc(NC(=O)c4nn(-c5ccccc5)cc(C)c4=O)cc3)ccnc2cc1OCCCCCCC(=O)NO`
7.47

---

# tgt: Hepatocyte growth factor receptor (Homo sapiens, UniProt P08581)
# Sequence (P08581 whole entry): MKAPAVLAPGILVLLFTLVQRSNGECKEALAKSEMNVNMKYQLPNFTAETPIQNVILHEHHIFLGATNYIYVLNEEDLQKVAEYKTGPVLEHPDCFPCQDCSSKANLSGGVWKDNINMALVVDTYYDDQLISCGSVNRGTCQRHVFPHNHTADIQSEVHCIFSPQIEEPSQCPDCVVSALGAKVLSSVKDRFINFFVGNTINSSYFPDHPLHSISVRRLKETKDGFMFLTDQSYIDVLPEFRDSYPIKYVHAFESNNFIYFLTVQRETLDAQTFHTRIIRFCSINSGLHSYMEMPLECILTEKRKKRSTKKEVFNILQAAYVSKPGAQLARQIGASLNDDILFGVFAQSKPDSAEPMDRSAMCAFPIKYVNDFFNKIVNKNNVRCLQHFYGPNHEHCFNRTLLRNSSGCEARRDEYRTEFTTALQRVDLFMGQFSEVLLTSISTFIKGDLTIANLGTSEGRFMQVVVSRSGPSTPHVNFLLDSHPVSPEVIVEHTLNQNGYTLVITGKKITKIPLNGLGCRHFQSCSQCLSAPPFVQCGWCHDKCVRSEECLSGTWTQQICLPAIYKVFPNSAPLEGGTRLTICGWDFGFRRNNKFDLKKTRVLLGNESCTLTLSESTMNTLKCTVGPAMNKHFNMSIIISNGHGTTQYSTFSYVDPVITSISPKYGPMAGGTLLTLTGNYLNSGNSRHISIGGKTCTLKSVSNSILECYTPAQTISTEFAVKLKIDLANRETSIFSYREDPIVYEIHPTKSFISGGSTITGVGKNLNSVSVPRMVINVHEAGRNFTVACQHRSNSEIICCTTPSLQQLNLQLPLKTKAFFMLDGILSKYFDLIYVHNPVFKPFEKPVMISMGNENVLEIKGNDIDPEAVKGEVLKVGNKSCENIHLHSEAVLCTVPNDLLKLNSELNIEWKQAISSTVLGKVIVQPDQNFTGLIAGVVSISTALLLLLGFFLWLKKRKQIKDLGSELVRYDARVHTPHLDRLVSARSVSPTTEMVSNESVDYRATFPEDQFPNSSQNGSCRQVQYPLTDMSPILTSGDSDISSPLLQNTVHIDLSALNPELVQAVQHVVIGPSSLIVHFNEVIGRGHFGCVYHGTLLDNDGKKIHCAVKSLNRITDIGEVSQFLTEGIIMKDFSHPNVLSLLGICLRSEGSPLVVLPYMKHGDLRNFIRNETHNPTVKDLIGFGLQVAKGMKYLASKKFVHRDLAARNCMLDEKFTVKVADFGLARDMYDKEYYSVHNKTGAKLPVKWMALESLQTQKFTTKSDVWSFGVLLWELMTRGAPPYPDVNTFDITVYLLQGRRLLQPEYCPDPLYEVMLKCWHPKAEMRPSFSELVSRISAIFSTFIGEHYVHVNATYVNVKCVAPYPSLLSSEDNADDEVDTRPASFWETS
# experimental.conditions: dose 100.0 nM, time 10.0 min
Binary call on inhibition: 1 from 90% upward, 0 beneath that.

Below are worked cases with known answers.
{"query.smiles": "COc1cc2c(Oc3ccc(NC(=O)c4nn(-c5ccccc5C(F)(F)F)ccc4=O)cc3)ccnc2cc1OCC(=O)NO", "assigned.class": 0}
{"query.smiles": "COc1cc2c(Oc3ccc(NC(=O)c4nn(-c5ccc(C)cc5)cc(C)c4=O)cc3)ccnc2cc1OCCCCCCC(=O)NO", "assigned.class": 0}
{"query.smiles": "O=C(CCCCCCC(=O)Nc1ccccc1)NO", "assigned.class": 0}
{"query.smiles": "COc1cc2c(Oc3ccc(NC(=O)c4nn(-c5ccccc5C)cc(C)c4=O)cc3)ccnc2cc1OCCCC(=O)NO", "assigned.class": 1}

// inclusive: inhibition at least 90%? input: `COc1cc2c(Oc3ccc(NC(=O)c4nn(-c5ccccc5C)ccc4=O)cc3F)ccnc2cc1OCCCC(=O)NO`
1

Hi, just wondering whether `COc1cc2c(Oc3ccc(NC(=O)c4nn(-c5ccccc5C)cc(C)c4=O)cc3F)ccnc2cc1OCCCC(=O)NO` shows inhibition of 90% or higher.
1
